# EXPERIMENT: Mouse PK Assays
# CONDITIONS_USED: in vivo, PO 10 mg/kg, 30% SBE-beta-cyclodextrin, fed, read-out: PK-Mouse: PO F (%)
MEASUREMENT_TYPE: bioavailability (%)
Field format: number, assumed %, no unit text.

# input molecule: Cc1cc(C(C)Nc2ccccc2C(=O)O)c2oc(N3CCC(C)(C)CC3)cc(=O)c2c1 (single isomer, unassigned) ; wanted: its bioavailability
100

###

Listed here: items and their measured IC50.
# TARGET_UNDER_TEST: human full length PIK3CA Wild-type (p110α/p85α complex) (Homo sapiens (Human))
# Sequence (P42336 whole entry): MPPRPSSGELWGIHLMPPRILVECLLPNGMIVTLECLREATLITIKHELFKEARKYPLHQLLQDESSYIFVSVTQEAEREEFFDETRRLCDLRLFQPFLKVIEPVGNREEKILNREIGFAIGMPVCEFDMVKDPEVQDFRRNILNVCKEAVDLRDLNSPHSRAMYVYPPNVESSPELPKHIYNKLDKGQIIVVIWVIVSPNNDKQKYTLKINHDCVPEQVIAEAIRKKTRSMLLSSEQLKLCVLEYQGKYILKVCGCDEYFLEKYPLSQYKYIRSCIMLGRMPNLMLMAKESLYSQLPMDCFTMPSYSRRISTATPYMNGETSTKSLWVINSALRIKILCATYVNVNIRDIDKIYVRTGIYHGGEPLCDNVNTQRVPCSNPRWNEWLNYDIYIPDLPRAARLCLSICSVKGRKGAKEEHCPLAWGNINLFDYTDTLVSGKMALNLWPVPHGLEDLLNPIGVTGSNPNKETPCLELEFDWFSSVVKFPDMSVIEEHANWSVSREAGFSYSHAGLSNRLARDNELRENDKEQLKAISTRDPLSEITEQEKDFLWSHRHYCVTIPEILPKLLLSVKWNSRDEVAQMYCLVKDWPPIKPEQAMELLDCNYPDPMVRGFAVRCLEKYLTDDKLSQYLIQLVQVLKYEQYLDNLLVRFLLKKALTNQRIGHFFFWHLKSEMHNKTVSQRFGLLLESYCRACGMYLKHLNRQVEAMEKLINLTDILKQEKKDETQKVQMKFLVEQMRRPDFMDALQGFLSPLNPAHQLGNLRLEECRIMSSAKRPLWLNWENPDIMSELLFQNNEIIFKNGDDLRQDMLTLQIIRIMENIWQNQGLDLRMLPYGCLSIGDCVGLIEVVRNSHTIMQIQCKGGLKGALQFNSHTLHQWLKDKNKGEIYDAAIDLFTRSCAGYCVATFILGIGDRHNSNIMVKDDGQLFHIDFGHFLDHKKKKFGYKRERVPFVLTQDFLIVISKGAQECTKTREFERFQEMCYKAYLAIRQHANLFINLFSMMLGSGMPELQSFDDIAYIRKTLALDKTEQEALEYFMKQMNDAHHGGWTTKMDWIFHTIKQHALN
# Sequence (P27986 whole entry partner): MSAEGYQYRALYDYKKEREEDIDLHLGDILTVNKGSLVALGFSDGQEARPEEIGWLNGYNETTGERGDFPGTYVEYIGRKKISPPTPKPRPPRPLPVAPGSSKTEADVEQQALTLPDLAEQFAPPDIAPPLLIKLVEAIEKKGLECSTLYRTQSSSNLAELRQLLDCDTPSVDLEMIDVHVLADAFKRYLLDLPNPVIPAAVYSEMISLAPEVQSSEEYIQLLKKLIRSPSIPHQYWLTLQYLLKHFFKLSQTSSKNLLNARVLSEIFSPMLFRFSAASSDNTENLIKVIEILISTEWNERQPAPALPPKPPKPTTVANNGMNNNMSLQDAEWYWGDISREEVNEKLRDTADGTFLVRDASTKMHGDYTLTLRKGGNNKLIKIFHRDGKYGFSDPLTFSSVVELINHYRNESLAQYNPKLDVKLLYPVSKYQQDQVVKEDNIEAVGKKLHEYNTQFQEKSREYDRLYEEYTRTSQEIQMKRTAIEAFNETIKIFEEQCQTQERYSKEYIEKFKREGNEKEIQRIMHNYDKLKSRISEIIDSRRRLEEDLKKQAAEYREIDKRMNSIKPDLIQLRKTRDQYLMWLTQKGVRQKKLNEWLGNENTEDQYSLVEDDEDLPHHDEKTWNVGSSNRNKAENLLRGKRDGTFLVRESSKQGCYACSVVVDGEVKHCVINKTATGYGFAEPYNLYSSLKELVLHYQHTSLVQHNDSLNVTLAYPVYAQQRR
# EXPERIMENT: PI3K-Alpha kinase (PIK3CA) activity, wild-type, Transcreener ADP2 FI assay
# CONDITIONS_USED: PI3K-α (PIK3CA) wild-type, biochemical

Here's what some known entries look like.
Cc1cc(C(C)Nc2ccccc2C(=O)O)c2oc(N3CCC(C)(C)CC3)c(-c3cnoc3)c(=O)c2c1 (single isomer, unassigned) [Example 54]: > 10000 nM
Cc1cc(C(C)Nc2ccccc2C(=O)O)c2oc(N3Cc4ccc(F)cc4C3)cc(=O)c2c1 (single isomer, unassigned) [Example 123]: 500 to 1000 nM
CONC(=O)c1ccccc1NC(C)c1cc(C)cc2c(=O)cc(N3CCC(C)(C)CC3)oc12 (stereo not drawn): 500 to 1000 nM
CC(Nc1ccccc1C(=O)O)c1cc(F)cc2c(=O)cc(N3CCC4(CC3)CC4)oc12 (stereo not drawn): 1000 to 5000 nM
Cc1cc(C(C)Nc2ccccc2C(=O)O)c2oc(N3CCC(C)(C)CC3)c(C#N)c(=O)c2c1 (stereo not drawn): 500 to 1000 nM

Sample Cc1c(N2CCC3(CC2)CC3)oc2c(C(C)Nc3ccccc3C(=O)O)cc(F)cc2c1=O (single isomer, unassigned) — what was its IC50?
< 500 nM

What does the record list as IC50 for Cc1cc([C@@H](C)Nc2ccnnc2C(=O)O)c2oc(N3CCC(C)(C)CC3)cc(=O)c2c1 ?
1000 to 5000 nM

Requested field: IC50. Item: Cc1cc(C(C)Nc2ccccc2C(=O)O)c2oc(N3CC(c4ccccc4)C3)cc(=O)c2c1 (single isomer, unassigned)
500 to 1000 nM

Dear colleague, I am looking for the recorded IC50 of the following compound: Cc1c(N2Cc3ccccc3C2)oc2c(C(C)Nc3ccccc3C(=O)O)cc(F)cc2c1=O (single isomer, unassigned)
< 500 nM

May I ask what IC50 has been recorded for CC(Nc1ccccc1C(=O)O)c1cc(C(F)(F)F)cc2c(=O)cc(N3Cc4ccccc4C3)oc12 (single isomer, unassigned) ?
< 500 nM

Fill blank: measured IC50 of the compound Cc1c(N2Cc3ccc(F)cc3C2)oc2c(C(C)Nc3ccccc3C(=O)O)cc(C(F)(F)F)cc2c1=O (single isomer, unassigned) is ____.
500 to 1000 nM

Please look up its IC50: CC(Nc1ccccc1C(=O)O)c1cc(C(F)(F)F)cc2c(=O)cc(N3Cc4ccc(C#N)cc4C3)oc12 (single isomer, unassigned; isomer 2)
< 500 nM

Reported IC50, compound Cc1cc(C(C)Nc2ccccc2S(=O)(=O)O)c2oc(N3CCC(C)(C)CC3)cc(=O)c2c1 (stereo not drawn) : ____
1000 to 5000 nM

Fill in: IC50 of Cc1cc([C@@H](C)Nc2ccccc2C(=O)O)c2oc(N3CCC(C#N)(c4ccccc4)CC3)c(C)c(=O)c2c1 is ___
500 to 1000 nM

What measured IC50 goes with Cc1cc(C(C)Nc2ccccc2C(=O)O)c2oc(N3CCC4(CC3)Cn3nc(C(=O)N(C)C)cc3CO4)cc(=O)c2c1 (stereo not drawn) ?
5000 to 10000 nM

Data request, read-out IC50, for Cc1cc(C(C)Nc2ccccc2C(=O)O)c2oc(N3CC4CC(C4)C3)cc(=O)c2c1 (stereo not drawn)
1000 to 5000 nM

Which IC50 reading was recorded for the compound Cc1cc(C(C)Nc2ccc(Cl)nc2C(=O)O)c2oc(N3Cc4ccccc4C3)cc(=O)c2c1 (stereo not drawn) ?
1000 to 5000 nM

# lookup: IC50 of Cc1cc(C(C)Nc2ccccc2C(=O)O)c2oc(N3CCC(F)(F)CC3)cc(=O)c2c1 (single isomer, unassigned)
1000 to 5000 nM

Request the reported IC50 associated with COC12CC(C1)N(c1cc(=O)c3cc(C)cc(C(C)Nc4ccccc4C(=O)O)c3o1)C2 (single isomer, unassigned) [Example 112]
1000 to 5000 nM

Given the compound Cc1cc(C(C)Nc2ccccc2C(=O)O)c2oc(N3CCn4cccc4C3)cc(=O)c2c1 (stereo not drawn) , what is its reported IC50?
500 to 1000 nM

I have this compound here, Cc1cc([C@@H](C)Nc2ccccc2C(=O)O)c2oc(N3CC4(CCC4(F)F)C3)c(C)c(=O)c2c1 , and I need its recorded IC50.
500 to 1000 nM
